target: Sodium channel protein type 3 subunit alpha (Homo sapiens, UniProt Q9NY46); assay: Inhibition of Nav1.3 (unknown origin) expressed in HEK293 cells assessed as 15% inhibition of sodium current incubated for 3 to 3.5 mins by electrophysiology assay; format: cell-based
Sequence (Q9NY46 whole entry, looked up): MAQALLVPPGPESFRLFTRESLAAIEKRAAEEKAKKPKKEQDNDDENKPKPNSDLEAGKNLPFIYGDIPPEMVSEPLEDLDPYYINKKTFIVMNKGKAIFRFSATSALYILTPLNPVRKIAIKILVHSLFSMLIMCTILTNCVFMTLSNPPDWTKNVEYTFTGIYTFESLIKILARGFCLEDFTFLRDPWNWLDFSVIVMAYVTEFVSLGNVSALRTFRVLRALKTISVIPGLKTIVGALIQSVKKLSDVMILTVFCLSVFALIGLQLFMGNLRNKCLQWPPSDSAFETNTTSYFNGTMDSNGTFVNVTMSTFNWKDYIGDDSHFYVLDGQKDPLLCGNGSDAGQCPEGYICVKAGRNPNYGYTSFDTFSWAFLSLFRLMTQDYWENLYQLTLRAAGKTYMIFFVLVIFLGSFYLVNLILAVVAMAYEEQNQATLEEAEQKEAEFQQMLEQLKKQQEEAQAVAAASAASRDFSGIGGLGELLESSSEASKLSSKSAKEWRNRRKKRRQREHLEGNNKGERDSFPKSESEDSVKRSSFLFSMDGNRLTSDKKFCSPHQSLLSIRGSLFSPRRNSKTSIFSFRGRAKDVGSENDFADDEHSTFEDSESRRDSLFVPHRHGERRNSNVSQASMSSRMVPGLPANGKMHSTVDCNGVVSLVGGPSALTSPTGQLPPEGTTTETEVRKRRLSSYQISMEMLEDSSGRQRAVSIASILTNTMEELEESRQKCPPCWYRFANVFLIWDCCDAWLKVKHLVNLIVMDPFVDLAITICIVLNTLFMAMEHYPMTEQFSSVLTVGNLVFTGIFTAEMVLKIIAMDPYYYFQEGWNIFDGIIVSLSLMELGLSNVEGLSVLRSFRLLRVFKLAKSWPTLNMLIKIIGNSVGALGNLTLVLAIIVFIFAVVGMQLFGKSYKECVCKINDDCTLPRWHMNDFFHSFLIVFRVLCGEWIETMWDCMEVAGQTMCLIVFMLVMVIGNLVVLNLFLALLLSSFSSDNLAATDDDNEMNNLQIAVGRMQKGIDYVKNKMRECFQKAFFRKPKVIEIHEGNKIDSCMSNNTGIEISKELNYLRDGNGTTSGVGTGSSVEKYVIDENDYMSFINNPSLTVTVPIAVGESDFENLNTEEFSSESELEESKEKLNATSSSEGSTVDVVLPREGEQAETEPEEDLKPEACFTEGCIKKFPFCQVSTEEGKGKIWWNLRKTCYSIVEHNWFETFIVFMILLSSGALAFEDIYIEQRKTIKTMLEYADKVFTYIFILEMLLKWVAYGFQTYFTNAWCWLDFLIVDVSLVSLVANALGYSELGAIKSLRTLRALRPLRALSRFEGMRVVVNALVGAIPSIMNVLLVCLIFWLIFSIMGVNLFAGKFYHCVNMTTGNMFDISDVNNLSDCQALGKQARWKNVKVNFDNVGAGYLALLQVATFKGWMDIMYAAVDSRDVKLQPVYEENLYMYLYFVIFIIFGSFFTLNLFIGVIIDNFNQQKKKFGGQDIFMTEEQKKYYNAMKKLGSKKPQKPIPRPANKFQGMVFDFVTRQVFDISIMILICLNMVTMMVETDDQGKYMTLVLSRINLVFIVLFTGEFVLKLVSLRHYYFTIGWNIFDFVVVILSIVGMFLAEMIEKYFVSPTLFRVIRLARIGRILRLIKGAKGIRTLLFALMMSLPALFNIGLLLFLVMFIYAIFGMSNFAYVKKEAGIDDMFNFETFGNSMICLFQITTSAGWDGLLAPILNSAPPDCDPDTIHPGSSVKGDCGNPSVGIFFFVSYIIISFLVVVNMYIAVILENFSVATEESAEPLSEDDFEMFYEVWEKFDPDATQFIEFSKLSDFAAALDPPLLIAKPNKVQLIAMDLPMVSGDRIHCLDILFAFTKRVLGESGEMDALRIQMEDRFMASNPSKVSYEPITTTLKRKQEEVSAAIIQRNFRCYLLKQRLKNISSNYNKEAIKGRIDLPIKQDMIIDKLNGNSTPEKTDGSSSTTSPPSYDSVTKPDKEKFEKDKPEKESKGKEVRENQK
Reported log(activity) values follow for various molecules
API note: the answer field is a bare number with no unit suffix.

Here's what some known entries look like.
>>> measured_result("NC(=O)[C@H]1CC[C@@H](c2ccc(OCc3ccccc3F)cc2)N1")
-5.4
>>> measured_result("NC(=O)[C@@H]1CC[C@H](c2ccc(OCc3ccc(F)cc3)cc2)N1")
-5
>>> measured_result("NC(=O)[C@@H]1CSc2cc(OCc3ccccc3F)ccc2CN1")
-4.7
>>> measured_result("N#Cc1cccc(COc2ccc([C@H]3CC[C@@H](C(N)=O)N3)cc2)c1")
-5.2

Let us move to another entry and its log(activity).
Exercise: Request the reported log(activity) associated with N#Cc1ccccc1Oc1ccc([C@H]2CC[C@@H](C(N)=O)N2)cc1
Solution: -4.6

All figures here come from ChEMBL document CHEMBL4622996.
